- System: 217524-143-R1-J4-PDC spheroids with HUVEC/MSC, viability;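 further: spheroids exposed to agents for seven days before reading; 100% = DMSO vehicle control viability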
- Assay Remarks: Anticancer human tumor 217524-143-R1-J4-PDC patient-derived pancreatic carcinoma cell line growth inhibition [CLK]; active means viability on the fitted dose curve at most 10% of control; inactive means the rest
- Particulars: second compound 0.316 µM; first compound 0.00949 µM
Possible outcomes: yes (1) for active, no (0) for inactive

[[record]]
compound = "C=CC(=O)Nc1cc(Nc2nccc(-c3cn(C)c4ccccc34)n2)c(OC)cc1N(C)CCN(C)C + CN1CCN(c2cc(C(=O)Nc3cc4cc(-c5cnn(C)c5)ccc4cn3)ccn2)CC1"
label_value = "no (0)"

[[record]]
compound = "C=CC(=O)Nc1cc(Nc2nccc(-c3cn(C)c4ccccc34)n2)c(OC)cc1N(C)CCN(C)C + CNC(=O)c1ccc(Nc2nc(OC3CCCC3)c3c(-c4ccc5nc(C)oc5c4)c[nH]c3n2)c(OC)c1"
label_value = "no (0)"

[[record]]
compound = "CC(C)CC(NC(=O)C(Cc1ccccc1)NC(=O)c1cnccn1)B(O)O (stereo unspecified) + CNC(=O)c1ccc(Nc2nc(OC3CCCC3)c3c(-c4ccc5nc(C)oc5c4)c[nH]c3n2)c(OC)c1"
label_value = "no (0)"

[[record]]
compound = "NC(=O)C(=Cn1cnc(-c2cc(C(F)(F)F)cc(C(F)(F)F)c2)n1)c1cncnc1 + CN1CCN(c2cc(C(=O)Nc3cc4cc(-c5cnn(C)c5)ccc4cn3)ccn2)CC1"
label_value = "no (0)"

[[record]]
compound = "CC(C)CC(NC(=O)C(Cc1ccccc1)NC(=O)c1cnccn1)B(O)O (stereo unspecified) + CN1CCN(c2cc(C(=O)Nc3cc4cc(-c5cnn(C)c5)ccc4cn3)ccn2)CC1"
label_value = "yes (1)"

[[record]]
compound = "NC(=O)C(=Cn1cnc(-c2cc(C(F)(F)F)cc(C(F)(F)F)c2)n1)c1cncnc1 + CNC(=O)c1ccc(Nc2nc(OC3CCCC3)c3c(-c4ccc5nc(C)oc5c4)c[nH]c3n2)c(OC)c1"
label_value = "no (0)"

